Recorded Vd values for a group of compounds are listed next.
- assay_remarks: Volume of distribution at steady state in iv dosed ICR mouse
- Type: ADME, organism-based
- cond: in vivo, read-out: Vdss

[
  {
    "chemical_smiles": "CNC(=O)Nc1ccc(CNc2ncsc2C(=O)Nc2ccc3c(c2)OC(F)(F)O3)cn1",
    "Vd": "0.151 L/kg"
  },
  {
    "chemical_smiles": "CCNC(=O)Nc1ccc(CNc2ncsc2C(=O)Nc2ccc3c(c2)OC(F)(F)O3)cn1",
    "Vd": "0.24 L/kg"
  }
]

* * *

- assay_remarks: AUC (0 to 5 hrs) in ICR mouse at 25 mg/kg, po
- Assay type: ADME, organism-based
- Design: time < 4 hr, dose 25 mg/kg, route oral
- cond: plasma

[
  {
    "chemical_smiles": "CCNC(=O)Nc1cc(CNc2ccccc2C(=O)Nc2ccc3c(c2)OC(F)(F)O3)ccn1",
    "AUC(0-t) at 4 h": "> 400 µM·h"
  }
]

* * *

- assay_remarks: Cmax in ICR mouse at 25 mg/kg
- Assay type: ADME, organism-based
- Design: dose 25 mg/kg
- cond: in vivo
Recorded Cmax values for a group of molecules are listed next.
property_measured: Cmax (µM)

[
  {
    "chemical_smiles": "CNC(=O)Nc1ccc(CNc2ncsc2C(=O)Nc2ccc3c(c2)OC(F)(F)O3)cn1",
    "unit_text": "µM",
    "reading": 124
  },
  {
    "chemical_smiles": "CCNC(=O)Nc1ccc(CNc2ncsc2C(=O)Nc2ccc3c(c2)OC(F)(F)O3)cn1",
    "unit_text": "µM",
    "reading": 64
  }
]

* * *

Recorded AUC(0-t) values for a group of compounds are listed next.
- assay_remarks: AUC (1 to 5 hrs) in ICR mouse
- Assay type: ADME, organism-based
- Parameters: time 1-5 hr
- cond: plasma

[
  {
    "chemical_smiles": "CNC(=O)Nc1ccc(CNc2c(C(=O)Nc3ccc4c(c3)OC(F)(F)C(F)(F)O4)cnn2C)cn1",
    "unit_text": "µM·h",
    "AUC(0-t)": 19
  },
  {
    "chemical_smiles": "CCNC(=O)Nc1ccc(CNc2ncsc2C(=O)Nc2ccc3c(c2)OC(F)(F)O3)cn1",
    "unit_text": "µM·h",
    "AUC(0-t)": 255
  },
  {
    "chemical_smiles": "CNC(=O)Nc1ccc(CNc2ncsc2C(=O)Nc2ccc3c(c2)OC(F)(F)O3)cn1",
    "unit_text": "µM·h",
    "AUC(0-t)": 538
  },
  {
    "chemical_smiles": "CNC(=O)Nc1ccc(CNc2c(C(=O)Nc3ccc(SC(F)(F)F)cc3)cnn2C)cn1",
    "unit_text": "µM·h",
    "AUC(0-t)": 11
  }
]

* * *

- test_system: Mast/stem cell growth factor receptor Kit (Homo sapiens, UniProt P10721)
- Sequence (P10721 whole entry): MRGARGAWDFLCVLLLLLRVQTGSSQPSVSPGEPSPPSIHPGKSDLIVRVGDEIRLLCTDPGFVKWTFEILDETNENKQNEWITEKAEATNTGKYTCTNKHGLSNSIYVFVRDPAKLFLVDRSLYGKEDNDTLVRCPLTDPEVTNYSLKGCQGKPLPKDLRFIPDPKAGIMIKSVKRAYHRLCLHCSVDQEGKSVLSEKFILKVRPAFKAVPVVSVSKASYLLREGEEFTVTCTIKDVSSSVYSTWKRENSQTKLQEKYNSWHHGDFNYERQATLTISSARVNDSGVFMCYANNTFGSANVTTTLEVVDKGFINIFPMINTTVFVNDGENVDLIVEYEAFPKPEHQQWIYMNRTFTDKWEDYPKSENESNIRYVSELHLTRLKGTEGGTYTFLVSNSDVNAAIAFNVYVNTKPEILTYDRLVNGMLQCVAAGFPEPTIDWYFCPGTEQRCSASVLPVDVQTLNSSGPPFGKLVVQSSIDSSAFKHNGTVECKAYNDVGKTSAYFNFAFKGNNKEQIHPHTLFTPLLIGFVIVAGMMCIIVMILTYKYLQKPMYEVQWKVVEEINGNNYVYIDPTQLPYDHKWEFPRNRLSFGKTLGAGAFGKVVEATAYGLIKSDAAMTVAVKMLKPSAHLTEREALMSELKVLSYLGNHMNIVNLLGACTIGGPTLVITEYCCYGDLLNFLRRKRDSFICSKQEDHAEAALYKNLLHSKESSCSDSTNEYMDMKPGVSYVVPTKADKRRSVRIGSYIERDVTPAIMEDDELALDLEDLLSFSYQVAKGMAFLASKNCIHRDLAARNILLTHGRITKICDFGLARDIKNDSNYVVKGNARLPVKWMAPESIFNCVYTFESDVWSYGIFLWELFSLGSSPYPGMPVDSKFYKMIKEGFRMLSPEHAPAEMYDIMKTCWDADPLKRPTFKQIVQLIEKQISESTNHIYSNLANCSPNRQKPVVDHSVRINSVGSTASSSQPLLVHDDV
- assay_remarks: Inhibition of human recombinant cKit by FRET assay
pIC50: −log10 of the molar value.

[
  {
    "chemical_smiles": "CNC(=O)Nc1ccc(CNc2c(C(=O)Nc3ccc4c(c3)OC(F)(F)C(F)(F)O4)cnn2C)cn1",
    "pIC50": 7.92
  },
  {
    "chemical_smiles": "O=C(Nc1ccccc1)Nc1cc(CNc2ccccc2C(=O)Nc2ccc3c(c2)OC(F)(F)O3)ccn1",
    "pIC50": 7.06
  },
  {
    "chemical_smiles": "CNC(=O)c1cc(CNc2ncsc2C(=O)Nc2ccc3c(c2)OC(F)(F)C(F)(F)O3)ccn1",
    "pIC50": 7.92
  },
  {
    "chemical_smiles": "NC(=O)c1cc(CNc2ccccc2C(=O)Nc2ccc3c(c2)OC(F)(F)O3)ccn1",
    "pIC50": 8.70
  },
  {
    "chemical_smiles": "CS(=O)(=O)Nc1cc(CNc2ccccc2C(=O)Nc2ccc3c(c2)OC(F)(F)O3)ccn1",
    "pIC50": 7.60
  },
  {
    "chemical_smiles": "O=C(NCCO)c1cc(CNc2ccccc2C(=O)Nc2ccc3c(c2)OC(F)(F)O3)ccn1",
    "pIC50": 7.74
  },
  {
    "chemical_smiles": "CNC(=O)c1cc(CNc2ccsc2C(=O)Nc2ccc3c(c2)OC(F)(F)O3)ccn1",
    "pIC50": 8.52
  },
  {
    "chemical_smiles": "O=C(Nc1ccc2c(c1)OC(F)(F)O2)c1ccccc1NCc1ccnc(NCCCO)c1",
    "pIC50": 8.05
  },
  {
    "chemical_smiles": "CNC(=O)Nc1ccc(CNc2ncsc2C(=O)Nc2ccc3c(c2)OC(F)(F)O3)cn1",
    "pIC50": 8.30
  },
  {
    "chemical_smiles": "O=C(NC1CC1)c1cc(CNc2ccccc2C(=O)Nc2ccc3c(c2)OC(F)(F)O3)ccn1",
    "pIC50": 7.80
  },
  {
    "chemical_smiles": "O=C(NCc1ccccc1)Nc1cc(CNc2ccccc2C(=O)Nc2ccc3c(c2)OC(F)(F)O3)ccn1",
    "pIC50": 7.32
  },
  {
    "chemical_smiles": "COCCCNc1cc(CNc2ccccc2C(=O)Nc2ccc3c(c2)OC(F)(F)O3)ccn1",
    "pIC50": 7.92
  },
  {
    "chemical_smiles": "CCN(CC)CCCNC(=O)c1cc(CNc2ccccc2C(=O)Nc2ccc3c(c2)OC(F)(F)O3)ccn1",
    "pIC50": 7.38
  },
  {
    "chemical_smiles": "CS(=O)(=O)CCNC(=O)c1cc(CNc2ccccc2C(=O)Nc2ccc3c(c2)OC(F)(F)O3)ccn1",
    "pIC50": 7.77
  },
  {
    "chemical_smiles": "N#Cc1cc(CNc2ccccc2C(=O)Nc2ccc3c(c2)OC(F)(F)O3)ccn1",
    "pIC50": 7.43
  },
  {
    "chemical_smiles": "O=C(Nc1ccc2c(c1)CCC2)Nc1cc(CNc2ccccc2C(=O)Nc2ccc3c(c2)OC(F)(F)O3)ccn1",
    "pIC50": 6.62
  },
  {
    "chemical_smiles": "COCCNC(=O)c1cc(CNc2ccccc2C(=O)Nc2ccc3c(c2)OC(F)(F)O3)ccn1",
    "pIC50": 7.42
  },
  {
    "chemical_smiles": "O=C(Nc1ccc2c(c1)OC(F)(F)O2)c1ccccc1NCc1ccnc(NCCc2cnc[nH]2)c1",
    "pIC50": 7.64
  },
  {
    "chemical_smiles": "CC(=O)Nc1cc(CNc2ccccc2C(=O)Nc2ccc3c(c2)OC(F)(F)O3)ccn1",
    "pIC50": 9.00
  },
  {
    "chemical_smiles": "CNc1nccc(CNc2ccccc2C(=O)Nc2ccc3c(c2)OC(F)(F)O3)n1",
    "pIC50": 8.52
  },
  {
    "chemical_smiles": "CCNC(=O)Nc1cc(CNc2ccccc2C(=O)Nc2ccc3c(c2)OC(F)(F)O3)ccn1",
    "pIC50": 8.15
  },
  {
    "chemical_smiles": "O=C(NCCCN1CCOCC1)c1cc(CNc2ccccc2C(=O)Nc2ccc3c(c2)OC(F)(F)O3)ccn1",
    "pIC50": 7.35
  },
  {
    "chemical_smiles": "O=C(Nc1ccc2c(c1)OC(F)(F)O2)c1ccccc1NCc1ccnc(C2=NCCN2)c1",
    "pIC50": 7.14
  },
  {
    "chemical_smiles": "NC(=S)c1cc(CNc2ccccc2C(=O)Nc2ccc3c(c2)OC(F)(F)O3)ccn1",
    "pIC50": 7.57
  },
  {
    "chemical_smiles": "CNC(=O)c1cc(CNc2c(C(=O)Nc3ccc4c(c3)OC(F)(F)O4)cnn2C)ccn1",
    "pIC50": 7.96
  },
  {
    "chemical_smiles": "O=C(Nc1ccc2c(c1)OC(F)(F)O2)c1ccccc1NCc1ccnc(NCCOCCO)c1",
    "pIC50": 8.40
  },
  {
    "chemical_smiles": "CN(C)c1nccc(CNc2ccccc2C(=O)Nc2ccc3c(c2)OC(F)(F)O3)n1",
    "pIC50": 7.30
  },
  {
    "chemical_smiles": "CNc1cc(CNc2ccccc2C(=O)Nc2ccc3c(c2)OC(F)(F)O3)ccn1",
    "pIC50": 8.52
  },
  {
    "chemical_smiles": "COCCCNC(=O)c1cc(CNc2ccccc2C(=O)Nc2ccc3c(c2)OC(F)(F)O3)ccn1",
    "pIC50": 7.72
  },
  {
    "chemical_smiles": "CNC(=O)Nc1cc(CNc2ccccc2C(=O)Nc2ccc3c(c2)OC(F)(F)O3)ccn1",
    "pIC50": 8.30
  },
  {
    "chemical_smiles": "CNC(=O)c1cc(CNc2ncsc2C(=O)Nc2ccc3c(c2)OC(F)(F)O3)ccn1",
    "pIC50": 7.60
  },
  {
    "chemical_smiles": "CNC(=O)Nc1ccc(CNc2c(C(=O)Nc3ccc(SC(F)(F)F)cc3)cnn2C)cn1",
    "pIC50": 7.77
  },
  {
    "chemical_smiles": "CCNC(=O)c1cc(CNc2ccccc2C(=O)Nc2ccc3c(c2)OC(F)(F)O3)ccn1",
    "pIC50": 7.60
  },
  {
    "chemical_smiles": "COCCNc1cc(CNc2ccccc2C(=O)Nc2ccc3c(c2)OC(F)(F)O3)ccn1",
    "pIC50": 7.89
  },
  {
    "chemical_smiles": "CNC(=O)c1cc(CNc2ccccc2C(=O)Nc2ccc3c(c2)OC(F)(F)O3)ccn1",
    "pIC50": 8.30
  },
  {
    "chemical_smiles": "CCNC(=O)Nc1ccc(CNc2ncsc2C(=O)Nc2ccc3c(c2)OC(F)(F)O3)cn1",
    "pIC50": 8.40
  },
  {
    "chemical_smiles": "O=C(Nc1ccc2c(c1)OC(F)(F)C(F)(F)O2)c1ccccc1NCc1ccncc1",
    "pIC50": 7.72
  }
]

Where these numbers come from: ChEMBL document CHEMBL1140657
